# METHOD: Fluorescence brightness with DFHO
# Format: biochemical
# ASSAY SETUP: normalized 0 to 1 across all three chromophores; average ± SD of two protein concentrations

MOLECULE	Fluorescence brightness, 100 nM DFHO
mFAP2.3: SEQ ID NO:58 (protein, (1)..(1) optionally absent) MSRAAQLLPGTWQVTMTNEDGQTSQGQMHFQPRSPYTMDVVAQGTISDGRPIVGYGKVTVKTPDTLDVDITYPSLGNIKAQGQITMDSPTQFKFDATTKGENDFHGRLTGTLQRQE	0.02
mFAP2.4: SEQ ID NO:59 (protein, (1)..(1) optionally absent) MSRAAQLLPGTWQVTMTNEDGQTSQGQMHFQPRSPYTMDIVAQGTISDGRPIVGYGKATVKTPDTLDVDITYPSLGNIKAQGQITMDSPTQFKFDATTKGAGNFTGRLTGTLQRQE	0.01
mFAP2a: SEQ ID NO:66 (protein, (1)..(1) optionally absent) MSRAAQLLPGTWQATFTNEDGQTSQGQWHFQPRSPYTMDIVAQGTISDGRPIVGYGKATVKTPDTLDIDITYPSLGNIKAQGQITMDSPTQFKWDATTKGENDFHGRLTGTLQRQE	0.03
